- Cond: in water, 303.15 K
Readout Kind: solubility (mole fraction)
Simply state the number, no unit and no words.

Q. # input compound: "CCCCc1oc2ccc(NS(C)(=O)=O)cc2c1C(=O)c1ccc(OCCCN(CCCC)CCCC)cc1.Cl" ; wanted: its solubility (mole fraction)
A. 2.73e-05

---

- Cond: in methanol, 323.15 K
Readout Kind: solubility (mole fraction)

Q. Using the record for "CCCCc1oc2ccc(NS(C)(=O)=O)cc2c1C(=O)c1ccc(OCCCN(CCCC)CCCC)cc1.Cl" , report its solubility (mole fraction).
A. 0.119

---

- Cond: in n-propanol, 313.15 K
Readout Kind: solubility (mole fraction)

Q. Which solubility (mole fraction) value is on record for "CCCCc1oc2ccc(NS(C)(=O)=O)cc2c1C(=O)c1ccc(OCCCN(CCCC)CCCC)cc1.Cl" ?
A. 0.00563

---

- Cond: in methanol, 298.15 K
Readout Kind: solubility (mole fraction)

Q. Name the recorded solubility (mole fraction) for "CCCCc1oc2ccc(NS(C)(=O)=O)cc2c1C(=O)c1ccc(OCCCN(CCCC)CCCC)cc1.Cl" .
A. 0.0556

---

- Cond: in methanol, 308.15 K
Readout Kind: solubility (mole fraction)
// no unit string in output, number only

Q. Sample "CCCCc1oc2ccc(NS(C)(=O)=O)cc2c1C(=O)c1ccc(OCCCN(CCCC)CCCC)cc1.Cl" — what was its solubility (mole fraction)?
A. 0.061

---

- Cond: in ethanol, 323.15 K
Readout Kind: solubility (mole fraction)
Answer using only a numeral; do not append any unit.

Q. Returns the measured solubility (mole fraction) for the input compound. Input: "CCCCc1oc2ccc(NS(C)(=O)=O)cc2c1C(=O)c1ccc(OCCCN(CCCC)CCCC)cc1.Cl"
A. 0.0362

---

- Cond: in water, 298.15 K
Readout Kind: solubility (mole fraction)
Field format: numeric only.

Q. May I ask what solubility (mole fraction) has been recorded for "CCCCc1oc2ccc(NS(C)(=O)=O)cc2c1C(=O)c1ccc(OCCCN(CCCC)CCCC)cc1.Cl" ?
A. 2.71e-05

---

- Cond: in methanol, 303.15 K
Readout Kind: solubility (mole fraction)
API note: the answer field is a bare number with no unit suffix.

Q. I am curious: what solubility (mole fraction) value has been reported for "CCCCc1oc2ccc(NS(C)(=O)=O)cc2c1C(=O)c1ccc(OCCCN(CCCC)CCCC)cc1.Cl" ?
A. 0.0592

---

- Cond: in water, 323.15 K
Readout Kind: solubility (mole fraction)
The answer should be a number; do not append a unit.

Q. Using the record for "CCCCc1oc2ccc(NS(C)(=O)=O)cc2c1C(=O)c1ccc(OCCCN(CCCC)CCCC)cc1.Cl" , report its solubility (mole fraction).
A. 6.11e-05

---

- Cond: in n-butanol, 318.15 K
Readout Kind: solubility (mole fraction)
# answer = number (no unit)

Q. May I ask what solubility (mole fraction) has been recorded for "CCCCc1oc2ccc(NS(C)(=O)=O)cc2c1C(=O)c1ccc(OCCCN(CCCC)CCCC)cc1.Cl" ?
A. 0.00509

---

- Cond: in isopropanol, 308.15 K
Readout Kind: solubility (mole fraction)
Number, no unit, nothing else.

Q. Fill in the blank: the reported solubility (mole fraction) of "CCCCc1oc2ccc(NS(C)(=O)=O)cc2c1C(=O)c1ccc(OCCCN(CCCC)CCCC)cc1.Cl" is ____.
A. 0.00106

---

- Cond: in isopropanol, 318.15 K
Readout Kind: solubility (mole fraction)
When you answer, write just the number.

Q. Return reported solubility (mole fraction); argument: "CCCCc1oc2ccc(NS(C)(=O)=O)cc2c1C(=O)c1ccc(OCCCN(CCCC)CCCC)cc1.Cl"
A. 0.00185

---

- Cond: in n-butanol, 298.15 K
Readout Kind: solubility (mole fraction)
Enter a number only.

Q. # solubility (mole fraction) lookup, item "CCCCc1oc2ccc(NS(C)(=O)=O)cc2c1C(=O)c1ccc(OCCCN(CCCC)CCCC)cc1.Cl"
A. 0.00177

---

- Cond: in isopropanol, 303.15 K
Readout Kind: solubility (mole fraction)
Field format: numeric only.

Q. Fill in the blank: the reported solubility (mole fraction) of "CCCCc1oc2ccc(NS(C)(=O)=O)cc2c1C(=O)c1ccc(OCCCN(CCCC)CCCC)cc1.Cl" is ____.
A. 0.000838

---

- Cond: in n-propanol, 298.15 K
Readout Kind: solubility (mole fraction)
Returns: the value as a bare number; no unit string appended.

Q. Dear colleague, I am looking for the recorded solubility (mole fraction) of the following compound: "CCCCc1oc2ccc(NS(C)(=O)=O)cc2c1C(=O)c1ccc(OCCCN(CCCC)CCCC)cc1.Cl"
A. 0.00275

---

- Cond: in n-propanol, 308.15 K
Readout Kind: solubility (mole fraction)
Response field accepts a number only; no unit should be typed.

Q. Form field: reported solubility (mole fraction) of "CCCCc1oc2ccc(NS(C)(=O)=O)cc2c1C(=O)c1ccc(OCCCN(CCCC)CCCC)cc1.Cl"
A. 0.00433
